Values were extracted from patent US20150011462A1.

- target.entity: T1, human GLP-1 receptor (human, UniProt P43220 24-463)
- T1 construct: whole, on cells
- protocol.notes: competitive binding (SPA): displacement of 125I-GLP-1(7-36)NH2 from BHK cell membranes with human GLP-1 receptor; low HSA (max. 0.001% final)
Numbered stars: 1 amine (or outer) side, 2 acyl side, 3 side chain; on linkers, the order of the positions; unused ones are H or OH. Square brackets hold non-standard residues; d marks the D form. Side chains are listed from the residue outwards. Ends that are not written are not given here. * marks the point of attachment. C20 diacid = O=C(O)CCCCCCCCCCCCCCCCCCC(=O)*; γGlu = O=C(O)[C@H](CCC(=O)[*:2])N[*:1]; Desaminohistidyl = O=C(CCc1c[nH]cn1)*; εLys = N[C@@H](CCCCN[*:1])C(=O)[*:2]; Trx = NC[C@H]1CC[C@H](C(=O)O)CC1; AEEA = NCCOCCOCC(=O)O; Aib = CC(C)(N)C(=O)O
Listed binders paired with reported IC50
Expressed in nM, but write only the number.

Look over these answered cases.
binder	observable	measured.result
H[Aib]EGTFTSDVSSYLEEQAAREFIAWLVRGRGK([εLys-εLys-γGlu-Trx-C20 diacid])GGSK([εLys-εLys-γGlu-Trx-C20 diacid]) (Double-acylated, C-terminally extended GLP-1 analogue made by SPPS)	IC50	2.2
H[Aib]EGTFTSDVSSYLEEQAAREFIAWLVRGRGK([AEEA-AEEA-AEEA-AEEA-AEEA-AEEA-εLys-εLys-C20 diacid])GGSK([AEEA-AEEA-AEEA-AEEA-AEEA-AEEA-εLys-εLys-C20 diacid]) (Double-acylated, C-terminally extended GLP-1 analogue made by SPPS; also called 28)	IC50	0.05
H[Aib]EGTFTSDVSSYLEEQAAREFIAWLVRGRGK([AEEA-AEEA-AEEA-AEEA-γGlu-C20 diacid])GGSK([AEEA-AEEA-AEEA-AEEA-γGlu-C20 diacid]) (Double-acylated, C-terminally extended GLP-1 analogue made by SPPS; also called 19)	IC50	2.4
HXEGTFTSDVSSYLEEQAAREFIAWLVRGRGKGGSK (Aib at position 8; N-epsilon of Lys38 and of Lys42 each acylated with C20 diacid (19-carboxynonadecanoyl)-Trx-gGlu-DooaSuc (GLP-1(7-37) numbering = sequence-listing position + 6), Double-acylated, C-terminally extended GLP-1 analogue made by SPPS; also called 23)	IC50	1.4
H[Aib]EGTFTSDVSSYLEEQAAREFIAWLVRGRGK([AEEA-AEEA-AEEA-AEEA-AEEA-AEEA-γGlu-Trx-C20 diacid])GGSK([AEEA-AEEA-AEEA-AEEA-AEEA-AEEA-γGlu-Trx-C20 diacid]) (Double-acylated, C-terminally extended GLP-1 analogue made by SPPS; also called 24)	IC50	0.67

Recorded IC50 of [Desaminohistidyl][Aib]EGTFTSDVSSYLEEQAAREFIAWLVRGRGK([AEEA-AEEA-AEEA-AEEA-γGlu-C20 diacid])GGSK([AEEA-AEEA-AEEA-AEEA-γGlu-C20 diacid]) (Double-acylated, C-terminally extended GLP-1 analogue made by SPPS; also called 20) [N{Alpha}([Imp …] , please. 4.1

Next entry: H[Aib]EGTFTSDVSK([AEEA-AEEA-γGlu-Trx-C20 diacid])YLEEQAAREFIAWLVRGRGGGGSK([AEEA-AEEA-γGlu-Trx-C20 diacid]) (Double-acylated, C-terminally extended GLP-1 analogue made by SPPS) 1

// next record H[Aib]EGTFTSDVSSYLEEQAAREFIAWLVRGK([AEEA-AEEA-γGlu-Trx-C20 diacid])GAESPK([AEEA-AEEA-γGlu-Trx-C20 diacid]) (Double-acylated, C-terminally extended GLP-1 analogue made by SPPS; also called 14) 1.5
